MEASURED TARGET: AhR (Homo sapiens, UniProt P35869)
Construct: endogenous in cells
Sequence (P35869 11-848): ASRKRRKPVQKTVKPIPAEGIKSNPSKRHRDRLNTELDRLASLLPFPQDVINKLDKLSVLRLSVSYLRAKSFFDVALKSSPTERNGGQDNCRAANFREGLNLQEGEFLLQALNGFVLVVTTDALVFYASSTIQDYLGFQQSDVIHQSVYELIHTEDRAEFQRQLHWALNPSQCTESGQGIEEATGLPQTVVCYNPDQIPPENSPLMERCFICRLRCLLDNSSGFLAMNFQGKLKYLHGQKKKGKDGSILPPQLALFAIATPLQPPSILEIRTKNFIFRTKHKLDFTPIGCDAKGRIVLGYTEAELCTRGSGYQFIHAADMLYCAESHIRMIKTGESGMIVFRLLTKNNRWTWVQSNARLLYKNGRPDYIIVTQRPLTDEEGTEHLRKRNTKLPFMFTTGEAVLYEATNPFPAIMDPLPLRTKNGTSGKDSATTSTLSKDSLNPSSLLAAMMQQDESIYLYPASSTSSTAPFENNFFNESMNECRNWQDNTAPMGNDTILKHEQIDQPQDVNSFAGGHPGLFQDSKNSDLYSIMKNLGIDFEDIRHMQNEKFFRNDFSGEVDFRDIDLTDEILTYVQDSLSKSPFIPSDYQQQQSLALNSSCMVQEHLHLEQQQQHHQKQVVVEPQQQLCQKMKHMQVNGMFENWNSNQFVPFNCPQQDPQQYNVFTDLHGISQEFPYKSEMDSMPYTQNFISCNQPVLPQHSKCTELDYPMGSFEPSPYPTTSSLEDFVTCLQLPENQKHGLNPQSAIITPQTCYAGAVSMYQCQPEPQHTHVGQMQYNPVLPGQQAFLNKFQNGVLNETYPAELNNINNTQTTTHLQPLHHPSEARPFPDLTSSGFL
PROTOCOL SUMMARY: DRE-Luciferase reporter assay (HepG2-Luc)
SETTINGS: Human HepG2 liver carcinoma AhR-Lucia reporter cells; inhibition of luciferase activity induced by AhR activating ligand at its EC50
MEASUREMENT KIND: IC50

Incoming: What value of IC50 has been reported for the following molecule? O=c1c2cc(-c3ccc(OC(F)(F)F)cc3)nc(-c3cccnc3)c2ncn1C[C@@H](O)C(F)(F)F
Outgoing: < 100 nM

Values were extracted from patent US20230381182A1.
